# Tested on: KM12
# Assay explanation: NCI tumour cell line growth inhibition, 48 h
Calls of active or inactive are those of the source. Rule as the data show it: active = GI50 up to about 1.1 µM and inactive = higher.
Assignment: determine reported GI50 for the given molecules.

response.value for CCCC1(N)CC(OC)OC(C)C1O (stereo not drawn) (field: GI50) = > 100 µM (inactive)

Sample COC1C(=[N+]=[N-])C(=O)NC(=O)N1C1OC(COC(c2ccccc2)(c2ccccc2)c2ccccc2)C(O)C1O (stereo not drawn) ; GI50 observed: 16.9 µM (inactive)

Looking up "CCCCCCOC(=O)/C=C/[C@]1(CO)C/C(=C/CC(C(C)C)C(C)C)C(=O)O1" , I see its GI50 listed as 16 µM (inactive)

For "COc1ccc(-n2c(CCCC(=O)O)nc3c2C(=O)c2ccccc2C3=O)cc1" the molecule record lists GI50 as 64.1 µM (inactive)

For record "Brc1c(C#CCC2CCCCC2)ccc(C#CCC2CCCCC2)c1Br" the listed GI50 is > 100 µM (inactive)

Quick note, GI50 for "COC(=O)c1ccc(Oc2nc3ccc(C(F)(F)F)cc3nc2-c2ccccc2)cc1" landed at > 100 µM (inactive)

Memo: "CN(C)CCNc1ncnc2nc(-c3ccccc3)c(-c3ccccc3)nc12" , reported GI50: > 100 µM (inactive)

In plain terms, "Cc1ccc(Nc2nc(=O)c3c([nH]c4ccccc43)s2)cc1" has a documented GI50 of 3.43 µM (inactive)

The reported GI50 of the molecule "O=C1Nc2cccc(Cl)c2/C1=C\c1c(-c2ccccc2)nc2n1CCS2" was 20.8 µM (inactive)

Lab note: "[O-][S+]1c2ccccc2SCSc2ccccc21" gave GI50 of > 100 µM (inactive)

So, COC1CN(C)/C(=N\c2cccc3ccccc23)S1 (stereo not drawn) ? Its GI50 was > 10 µM (inactive)

The recorded GI50 for "CCN(CC)C(=O)c1c(N2CCOCC2)cc(N(CC)CC)oc1=O" is > 100 µM (inactive)

Lab note: measured GI50 of CS(=O)(=O)OCCCCOS(C)(=O)=O [BUSULFAN] was > 250 µM (inactive)

According to the records, this molecule "O=C(C[C@@H]1NCCC[C@H]1O)Cn1cnc2cc(Br)c(Cl)cc2c1=O" displays GI50 of 0.0171 µM (active)

Field GI50 (entry NC(=S)N/N=C1/CN(c2ccc(Cl)c(Cl)c2)CC(=O)C1c1nc2ccccc2s1 (stereo not drawn) ) reads 42.9 µM (inactive)

Measured GI50 of CC1=C2C(=CC(C)(C)C2O)C(=O)C(C)(O)C12CC2 (stereo not drawn) : 0.0158 µM (active)

Given item COC(=O)/C=C1\C(CO[Si](C)(C)C(C)(C)C)OC(n2ccc(=O)[nH]c2=O)C1O (stereo not drawn) , the value recorded as its GI50 is 7.06 µM (inactive)

Briefly, GI50 measured for "CNC(=O)c1nn[nH]c1Sc1c([N+](=O)[O-])ncn1C" : > 100 µM (inactive)

Record summary for "CC(=O)c1c(O)cc(O)c(-c2c(C)cc(O)c3c2C(=O)c2cccc(O)c2C3=O)c1O" : reported GI50 = 16.2 µM (inactive)

Documented GI50 of "COc1ccc(/C=C/C(=O)C(C)(C)Br)cc1" : 16.1 µM (inactive)

Reported GI50 of OCC(CCc1c[nH]c2ccccc12)c1c[nH]c2ccccc12 (stereo not drawn) : 15.9 µM (inactive)

// GI50 lookup, molecule = "O=P(O)(O)CN1CCNCCN(CP(=O)(O)O)CCNCC1" , result: 6.84 µM (inactive)

Nc1ccc(C(=O)CC(N)C(=O)O)cc1O (stereo not drawn) yielded GI50 of > 100 µM (inactive)
